In this section, each of the compounds is paired with its reported TGI.
System: SK-OV-3 ovarian
Assay Overview: NCI tumour cell line growth inhibition, 48 h

Solved entries (count: 5):
Q: Fill blank: measured TGI of the compound CC1CC(N2CCOCC2)=Nc2ccccc2N1Cc1ccccc1 (stereo not drawn) is ____.
Ans: > 100 µM

Q: Fill blank: measured TGI of the compound N#Cc1c(-c2ccccc2)cc(-c2ccccc2)n(C2OCC(O)C(O)C2O)c1=S (stereo not drawn) is ____.
Ans: 27.3 µM

Q: Fill blank: measured TGI of the compound `CC1CCN(CCOc2ccc(CNc3ccc4nc(CCC5CCCCC5)[nH]c4c3)cc2)CC1` is ____.
Ans: 3.4 µM

Q: Fill blank: measured TGI of the compound C=CCN(CC=C)C(=O)[C@H](CC)[C@@H]1CC[C@@H](C)[C@@H]([C@H](C)[C@@H](O)[C@@H](C)C(=O)[C@H](CC)C2O[C@]3(C=C[C@@H](O)[C@]4(CC[C@@](C)([C@H]5CC[C@](O)(CC)[C@H](C)O5)O4)O3)[C@H](C)C[C@@H]2C)O1 (stereo partly drawn) is ____.
Ans: > 100 µM

Q: Fill blank: measured TGI of the compound `O=C(Nc1nc2ncn(CCO)c2c(=O)[nH]1)c1ccccc1` is ____.
Ans: > 100 µM

Next:
Q: Fill blank: measured TGI of the compound `O=[N+]([O-])/C=C/c1cn(CCCCCCCCCCCCn2cc(/C=C/[N+](=O)[O-])c3ccccc32)c2ccccc12` is ____.
Ans: > 100 µM

Q: Fill blank: measured TGI of the compound `COc1cc(-c2cc(=O)c3ccccc3[nH]2)cc(OC)c1OC` is ____.
Ans: > 75 µM

Q: Fill blank: measured TGI of the compound `CC1=NNC(=S)NCCCN2CCN(CCCNC(=S)NN=C(C)C=NNC(=S)NCCCN3CCN(CCCNC(=S)NN=C1)CC3)CC2` is ____.
Ans: > 100 µM
